System: human plasma
Assay: Plasma protein binding via ultracentrifugation (UC)
Format: in vitro ADME
Conditions: ultracentrifugation, neat plasma
Recorded endpoint: Fraction unbound, human plasma
Answer field: number only, no words.

CCN(CC)CCCNc1ccnc2cc(Cl)ccc12.Cl.Cl: 0.43
CC(C)(C)NCc1cc(C(C)(C)C)cc(-c2cnc(C(F)(F)F)c(F)c2)c1O: 0.071
CCc1nc(N)nc(N)c1OCCCOc1ccccc1CCC(=O)O.Cl: 0.13

Please examine the following record next.
Data request: Dear colleague, I am looking for the recorded Fraction unbound, human plasma of the following compound: Cc1cc(Nc2ccc(C(F)(F)F)nc2)n2nc(C(C)(F)F)nc2n1
Data returned: 0.039

Numbers sourced from paper PMC6941357.
